Tested on: HCC 2998
Test: NCI tumour cell line growth inhibition, 48 h
Active and inactive are the calls of the source. No stated cut-off is given here; in the data, active = GI50 up to about 1.1 µM and inactive = higher.
Exercise: for every item that follows, state its recorded GI50.

Prompt: What GI50 value was documented for this compound, CCOC(=O)c1nc2cc(C(F)(F)F)ccc2nc1Nc1ccc(OC)cc1 ?
Completion: > 100 µM (inactive)

Prompt: Given the compound C/C(CC(=O)Nc1ccc(C)cc1C)=N/N=C(N)N , what is its reported GI50?
Completion: > 100 µM (inactive)

Prompt: Reported GI50 for N#C/C(=C1/Sc2c(nc[nH]c2=O)N1c1ccccc1)c1nc2ccccc2[nH]1 : what is it?
Completion: > 100 µM (inactive)

Prompt: # input compound: CCc1cccc(C)c1NC(C)=O ; wanted: its GI50
Completion: > 100 µM (inactive)

Prompt: Please give the measured GI50 for this compound: COC(Cc1ccccc1)NC(C)=O (stereo not given)
Completion: > 100 µM (inactive)

Prompt: Value lookup for GI50; key = CCN1C[C@]2(C)CC[C@H](OC)C34C1C([C@H](OC(C)=O)[C@@H]32)[C@@]1(OC)C[C@H](OC)[C@H]2C[C@@H]4[C@@H]1[C@H]2O
Completion: > 100 µM (inactive)

Prompt: # get_value(readout='GI50', item= Cc1cccc(C(C)C)c1NC(=O)/C(Cc1c([N+](=O)[O-])cccc1[N+](=O)[O-])=N/NC(=O)CC#N )
Completion: > 100 µM (inactive)

Prompt: Using the record for COc1cccc(CCNc2c(C#N)c3n(c4ccccc4[n+]3C)c3ncccc23)c1 , report its GI50.
Completion: 1.93 µM (inactive)

Prompt: Quick one: GI50 for CC12C=CC(=O)C=C1CCC1C3CCC(O)(C(=O)CO)C3(C)CC(O)C12F (stereo not given) ?
Completion: > 100 µM (inactive)

Prompt: For C/C(=N\NS(=O)(=O)c1ccc(C)cc1)c1cc2ccccc2n1C , what is its reported GI50?
Completion: > 100 µM (inactive)

Prompt: Any idea what its GI50 is? The compound is CC1=C2C(=O)O[C@@H](c3ccoc3)[C@]2(C)CCC1=O [FRAXINELLONONE]
Completion: > 100 µM (inactive)

Prompt: Need GI50, item CC12CCC(=O)N1c1cccnc1N2 (stereo not given)
Completion: > 100 µM (inactive)

Prompt: Which GI50 is listed for Cc1cc(S(=O)(=O)Nc2n[nH]c(Nc3ccccc3)n2)c(S)cc1Cl ?
Completion: > 10 µM (inactive)

Prompt: Sample COc1cc2c(cc1OCc1ccccc1)CNCC2 — what was its GI50?
Completion: > 100 µM (inactive)

Prompt: Name the recorded GI50 for Cc1ccc(/C=C2\CCCC(C(NO)c3ccc(C)cc3)C2=NO)cc1 (stereo not given) .
Completion: 16.8 µM (inactive)

Prompt: Could you share which GI50 value was measured for O=C1c2ccccc2C(=O)N1n1c(Cc2ccc(Cl)cc2)n[nH]c1=O ?
Completion: > 100 µM (inactive)

Prompt: Reported GI50, compound C[C@H](CC[C@@H](O)C(C)(C)O)[C@H]1CC[C@@]2(C)[C@@H]3CC=C4[C@@H](CC[C@H](OC5OC(CO)C(O)C(O)C5O)C4(C)C)[C@]3(C)C(=O)C[C@]12C (stereo not given in full) : ____
Completion: 89.7 µM (inactive)

Prompt: I'd like to know its GI50. The compound in question is CC(=O)O[C@H]1CCC2[C@@H]3CCC4c5nonc5CC[C@]4(C)C3CC[C@@]21C (stereo not given in full)
Completion: > 10 µM (inactive)

Prompt: Which measured GI50 value corresponds to COc1cc(/C=C2\CCC/C(=C\c3cc(OC)c(O)c(OC)c3)C2=O)cc(OC)c1O ?
Completion: 1.35 µM (inactive)

Prompt: Look at this compound and give its reported GI50. CN(C)CCC(O)(c1ccccc1)C(O)(CCN(C)C)c1ccccc1 (stereo not given)
Completion: > 100 µM (inactive)
